Molecular target: recombinant PRL-2 (Homo sapiens, UniProt Q12974)
Construct: 6xHis (N, cleaved yes); made in house; host or cells: E. coli One Shot BL21 Star
Sequence (Q12974 whole entry): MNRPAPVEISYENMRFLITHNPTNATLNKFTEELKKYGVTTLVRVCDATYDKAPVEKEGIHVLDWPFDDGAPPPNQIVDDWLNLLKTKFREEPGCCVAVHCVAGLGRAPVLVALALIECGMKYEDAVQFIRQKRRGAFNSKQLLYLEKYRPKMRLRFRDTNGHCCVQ
Assay: In vitro phosphatase assay (DiFMUP hydrolysis), PRL-2;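 also: PRL-2 activity read as DiFMUP hydrolysis after 20 min at room temperature with drug, enzyme first pre-reduced at 4 °C for 20 min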
Assay type: biochemical
Settings: FDA-approved drug screen; activity compared to DMSO
Where a name gives a salt, the structure may show the parent alone.
Endpoint: % Phosphatase Activity (compared to DMSO) PRL-2 (%)

>  <Compound>
Cn1ncc(Cl)c1-c1cc(C(=O)N[C@H](CN)Cc2ccc(F)c(F)c2)oc1Cl [Uprosertib (GSK2141795)]

>  <Target Or System>
recombinant PRL-2 (Homo sapiens, UniProt Q12974)

>  <U>
%

>  <Result>
95

$$$$
>  <Compound>
CC[C@@]1(O)C(=O)OCc2c1cc1n(c2=O)Cc2cc3c(CN(C)C)c(O)ccc3nc2-1 [Topotecan HCl]

>  <Target Or System>
recombinant PRL-2 (Homo sapiens, UniProt Q12974)

>  <U>
%

>  <Result>
192

$$$$
>  <Compound>
CC(c1cc2ccccc2s1)N(O)C(N)=O (stereo not drawn) [Zileuton]

>  <Target Or System>
recombinant PRL-2 (Homo sapiens, UniProt Q12974)

>  <U>
%

>  <Result>
86

$$$$
>  <Compound>
CN(C)CCc1c[nH]c2ccc(C[C@H]3COC(=O)N3)cc12 [Zolmitriptan]

>  <Target Or System>
recombinant PRL-2 (Homo sapiens, UniProt Q12974)

>  <U>
%

>  <Result>
86

$$$$
>  <Compound>
CC/C(=C(\c1ccccc1)c1ccc(OCCN(C)C)cc1)c1ccccc1 [Tamoxifen]

>  <Target Or System>
recombinant PRL-2 (Homo sapiens, UniProt Q12974)

>  <U>
%

>  <Result>
110

$$$$
>  <Compound>
N[C@@H]1CN(c2c(F)cc3c(=O)c(C(=O)O)cn([C@@H]4C[C@@H]4F)c3c2Cl)CC12CC2.O [Sitafloxacin Hydrate]

>  <Target Or System>
recombinant PRL-2 (Homo sapiens, UniProt Q12974)

>  <U>
%

>  <Result>
90

$$$$
